Documented shrunken log2 fold change across a set of sequences
System: Escherichia coli TOP10
Assay notes: shrunken log2 fold change of peptide-encoding DNA abundance (4.5 h post-induction vs induction); higher = less antimicrobial activity (less host growth inhibition)
Setup conditions: time post-induction: 4.5 h; library: site-saturation at positions 5, 18, 19, 20
Write the number on its own, no unit after it.

Please review the entries below; each comes with its answer.
# Item sequence, shrunken log2 fold change
rows = [
    ("RRIRWRPPRLPRPRPRPVCRPRP", 0.353),
    ("RRIRFRPPRLPRPRPRPEICPRP", 0.172),
    ("RRIRMRPPRLPRPRPRPFEPPRP", 0.174),
    ("RRIRPRPPRLPRPRPRPPLIPRP", -0.338),
    ("RRIRVRPPRLPRPRPRPHWMPRP", -0.32),
    ("RRIRLRPPRLPRPRPRPGPGPRP", 0.279),
    ("RRIRDRPPRLPRPRPRPVYDPRP", -0.434),
    ("RRIRQRPPRLPRPRPRPHHIPRP", -0.764),
]

Recorded shrunken log2 fold change of `RRIRTRPPRLPRPRPRPVYTPRP` , please.
-1.09

Same question, `RRIRYRPPRLPRPRPRPVYEPRP` this time
2.81

Lookup `RRIRLRPPRLPRPRPRPHTKPRP`
-0.422

Follow-up entry: `RRIRIRPPRLPRPRPRPFAKPRP`
-0.295

Here is the next sequence: `RRIRMRPPRLPRPRPRPINCPRP`
-0.0244

----------
System: Escherichia coli TOP10
Assay notes: shrunken log2 fold change of peptide-encoding DNA abundance (4.5 h post-induction vs induction); higher = less antimicrobial activity (less host growth inhibition)
Setup conditions: time post-induction: 4.5 h; library: site-saturation at positions 5, 18, 19, 20
Label FALSE if shrunken log2 fold change falls below 0.07; label TRUE in every other case.

// below: answered sequences
# Item sequence, Label class
data = [
    ("RRIRLRPPRLPRPRPRPSLCPRP", "FALSE"),
    ("RRIRIRPPRLPRPRPRPGCAPRP", "TRUE"),
    ("RRIRVRPPRLPRPRPRPYTQPRP", "FALSE"),
    ("RRIRFRPPRLPRPRPRPGQIPRP", "FALSE"),
    ("RRIRVRPPRLPRPRPRPNGRPRP", "TRUE"),
]

Answer whether shrunken log2 fold change of `RRIRRRPPRLPRPRPRPNISPRP` is greater than or equal to 0.07.
FALSE

----------
System: Escherichia coli TOP10;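 also: peptides expressed intracellularly from a pBAD plasmid library in pooled LB shake-flask culture, induced with 0.3% L-arabinose, DNA abundance read by NGS, three biological replicates, DESeq2 with apeglm shrinkage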
Assay notes: shrunken log2 fold change of peptide-encoding DNA abundance (4.5 h post-induction vs induction); higher = less antimicrobial activity (less host growth inhibition)
Setup conditions: time post-induction: 4.5 h; library: site-saturation at positions 5, 18, 19, 20
Readout name: shrunken log2 fold change

// known answers, use as guide
# Item sequence, Measurement target, Observed result
measured = [
    ("RRIRERPPRLPRPRPRPDPQPRP", "Escherichia coli TOP10", -0.102),
    ("RRIRVRPPRLPRPRPRPGAMPRP", "Escherichia coli TOP10", 0.0686),
]

Fill in: shrunken log2 fold change of `RRIRPRPPRLPRPRPRPTLAPRP` is ___
0.332

Same again, this time with `RRIRSRPPRLPRPRPRPAWDPRP`
0.281

Same question, `RRIRDRPPRLPRPRPRPNHRPRP` this time
-0.346
